assay: Venetoclax plasma pharmacokinetics in wild-type, CYP3A(−/−) and OATP1B2(−/−) mice; assay type: in vivo; conditions: female, FVB, mouse, plasma, po, 10 mg/kg, Table S1: wild-type FVB, female, N=5, venetoclax 10 mg/kg PO, no co-treatment; mean (SE)
OBSERVATION_TYPE: Cmax (ng/mL)
Give the value, in units of ng/mL, as a plain number.

Value of Cmax reported for the compound `CC1(C)CCC(CN2CCN(c3ccc(C(=O)NS(=O)(=O)c4ccc(NCC5CCOCC5)c([N+](=O)[O-])c4)c(Oc4cnc5[nH]ccc5c4)c3)CC2)=C(c2ccc(Cl)cc2)C1` is 1540

----------
// values below are reported IC50
molecular target: OATP1B2 (Mus musculus); test: Inhibition of OATP1B2-mediated [3H]EβG uptake in HEK293 cells; details: OATP1B2 IC50, HEK293 cells, 0.2 µM EβG, 15 min pre-incubation + 15 min co-incubation
Sequence (Q9JJL3 whole entry): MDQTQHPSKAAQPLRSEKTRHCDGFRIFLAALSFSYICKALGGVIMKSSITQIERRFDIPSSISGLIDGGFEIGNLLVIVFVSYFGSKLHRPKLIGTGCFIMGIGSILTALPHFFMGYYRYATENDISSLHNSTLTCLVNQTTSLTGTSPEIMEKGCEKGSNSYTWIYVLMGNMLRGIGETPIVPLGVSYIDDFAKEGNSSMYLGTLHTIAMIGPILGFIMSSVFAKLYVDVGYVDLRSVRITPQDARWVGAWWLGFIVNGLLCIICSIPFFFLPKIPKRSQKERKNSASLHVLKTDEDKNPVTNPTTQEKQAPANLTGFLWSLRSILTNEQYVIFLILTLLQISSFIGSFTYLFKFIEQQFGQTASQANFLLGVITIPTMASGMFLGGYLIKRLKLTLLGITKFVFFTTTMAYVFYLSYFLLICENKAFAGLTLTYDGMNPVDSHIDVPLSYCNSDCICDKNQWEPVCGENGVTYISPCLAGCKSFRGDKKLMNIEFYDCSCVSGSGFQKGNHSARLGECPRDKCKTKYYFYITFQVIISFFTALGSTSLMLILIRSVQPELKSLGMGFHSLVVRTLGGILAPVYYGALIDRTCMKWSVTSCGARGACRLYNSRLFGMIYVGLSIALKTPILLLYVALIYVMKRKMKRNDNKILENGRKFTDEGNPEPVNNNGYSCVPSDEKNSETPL
Give the value, in units of µM, as a plain number.

Value of IC50 reported for the molecule CC(C)c1nc(CN(C)C(=O)N[C@@H](CCN2CCOCC2)C(=O)N[C@H](CC[C@H](Cc2ccccc2)NC(=O)OCc2cncs2)Cc2ccccc2)cs1 [Cobicistat] is 0.7

Value of IC50 reported for the molecule C[C@@H](c1nc(-c2ccc(C#N)cc2)cs1)[C@](O)(Cn1cncn1)c1cc(F)ccc1F [Isavuconazole] is 2.5

meta.source: paper PMC9025810
